Can you tell me IC50 for the items I'm about to list?
tgt: human calcium-sensing receptor (CaSR) (Homo sapiens, UniProt P41180)
Construct: expressed in transfected cells; host or cells: CHO cells (CHO/hCaSR)
Sequence (P41180 20-1078): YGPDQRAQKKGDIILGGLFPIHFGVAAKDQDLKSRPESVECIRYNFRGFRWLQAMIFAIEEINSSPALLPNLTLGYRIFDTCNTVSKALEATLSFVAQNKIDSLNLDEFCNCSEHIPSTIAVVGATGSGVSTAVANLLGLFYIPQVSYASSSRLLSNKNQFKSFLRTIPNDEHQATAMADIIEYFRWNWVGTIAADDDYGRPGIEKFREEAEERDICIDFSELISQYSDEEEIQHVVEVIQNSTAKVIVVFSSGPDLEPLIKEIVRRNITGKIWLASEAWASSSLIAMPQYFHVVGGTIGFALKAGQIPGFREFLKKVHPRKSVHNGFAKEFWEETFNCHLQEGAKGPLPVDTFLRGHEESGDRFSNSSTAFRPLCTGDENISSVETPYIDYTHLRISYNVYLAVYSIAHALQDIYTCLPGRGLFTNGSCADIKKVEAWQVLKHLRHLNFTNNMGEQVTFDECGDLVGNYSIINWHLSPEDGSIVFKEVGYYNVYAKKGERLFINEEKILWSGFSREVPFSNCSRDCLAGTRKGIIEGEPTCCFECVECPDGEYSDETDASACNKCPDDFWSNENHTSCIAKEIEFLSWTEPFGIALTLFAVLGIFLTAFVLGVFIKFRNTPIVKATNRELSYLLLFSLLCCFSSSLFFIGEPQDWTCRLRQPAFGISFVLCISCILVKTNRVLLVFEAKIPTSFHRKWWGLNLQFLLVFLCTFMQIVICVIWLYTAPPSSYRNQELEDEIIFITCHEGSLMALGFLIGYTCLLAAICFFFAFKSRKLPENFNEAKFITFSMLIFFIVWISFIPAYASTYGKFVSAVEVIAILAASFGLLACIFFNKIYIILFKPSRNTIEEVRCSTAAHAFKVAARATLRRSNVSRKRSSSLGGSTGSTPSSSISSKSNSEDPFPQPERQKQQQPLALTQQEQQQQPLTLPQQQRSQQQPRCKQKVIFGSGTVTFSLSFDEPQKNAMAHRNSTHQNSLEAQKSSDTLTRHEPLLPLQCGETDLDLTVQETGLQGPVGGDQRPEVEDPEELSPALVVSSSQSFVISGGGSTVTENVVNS
test: Inhibitory activity on calcium-sensing receptor (CaSR) using intracellular calcium increase as an indicator (FLIPR, CHO/hCaSR)
Type: cell-based
study-conditions: CHO/hCaSR cells; intracellular Ca increase induced by CaCl2; test compound 1.05 to 10,000 nM

input: Find the measured IC50 of `C[C@@H](OC[C@H](O)CNC(C)(C)CC1Cc2ccccc2C1)c1ccc(F)cc1CCCCC(=O)O` and report it.
output: ≤ 2270 nM

input: Determine its reported IC50: `C[C@@H](OC[C@H](O)CNC(C)(C)CC1Cc2ccccc2C1)c1cc(F)c(F)cc1CCC(=O)O`
output: ≤ 2310 nM

input: State, in one line, measured IC50 of `CC[C@@H](OC[C@H](O)CNC(C)(C)CC1Cc2ccccc2C1)c1cc(F)ccc1CCC(=O)O`
output: ≤ 2330 nM

input: Tell me IC50 reported for `CCC[C@@H](OC[C@H](O)CNC(C)(C)CC1Cc2ccccc2C1)c1ccccc1CCC(=O)O`
output: ≤ 2350 nM

input: Identify the reported IC50 for the following entry. `C[C@@H](OC[C@H](O)CNC(C)(C)CC1Cc2ccccc2C1)c1cccc(OC(F)F)c1CCC(=O)O`
output: ≤ 2180 nM

input: Read off the recorded IC50 for `C[C@@H](OC[C@H](O)CNC(C)(C)CC1Cc2ccccc2C1)c1cccc(F)c1CCCCC(=O)O`
output: ≤ 2270 nM

input: Query IC50 for `C[C@@H](OC[C@H](O)CNC(C)(C)CC1Cc2ccccc2C1)c1ccccc1CCCCCCC(=O)O`
output: ≤ 2220 nM

====

tgt: human calcium-sensing receptor (CaSR) (Homo sapiens, UniProt P41180)
test: Inhibitory activity on calcium-sensing receptor (CaSR) using intracellular calcium increase as an indicator (FLIPR, CHO/hCaSR)
study-conditions: CHO/hCaSR cells; intracellular Ca increase induced by CaCl2; test compound 1.05 to 10,000 nM
Assignment: determine reported IC50 for the given compounds.

input: In one line, give reported IC50 of the entry `C[C@@H](OC[C@H](O)CNC(C)(C)CC1Cc2ccccc2C1)c1cc(C(F)(F)F)ccc1CCC(=O)O` .
output: ≤ 2.17 µM

input: Specify reported IC50 for the compound shown: `COc1cccc([C@@H](C)OC[C@H](O)CNC(C)(C)CC2Cc3ccccc3C2)c1CCCCC(=O)O`
output: ≤ 2.21 µM

input: Determine from records and report IC50 for `Cc1cc(-c2ccccc2[C@@H](C)OC[C@H](O)CNC2(CC3Cc4ccccc4C3)CC2)ccc1C(=O)O`
output: ≤ 2.2 µM

input: Retrieve IC50 measured for `C[C@@H](OC[C@H](O)CNC(C)(C)CC1Cc2ccccc2C1)c1ccc(Cl)cc1CCCCC(=O)O` and print it.
output: ≤ 2.19 µM

input: Answer with the recorded IC50 of `CC[C@@H](OC[C@H](O)CNC(C)(C)CC1Cc2ccccc2C1)c1ccc(Cl)cc1CCC(=O)O` only.
output: ≤ 2.25 µM

input: Quote IC50 reported for `CC[C@@H](OC[C@H](O)CNC(C)(C)CC1Cc2ccccc2C1)c1cc(F)c(C)cc1CCC(=O)O` please.
output: ≤ 2.27 µM

input: For `COc1cccc([C@@H](C)OC[C@H](O)CNC(C)(C)CC2Cc3ccccc3C2)c1CCC(=O)O` , write its IC50.
output: ≤ 2.34 µM

====

tgt: human calcium-sensing receptor (CaSR) (Homo sapiens)
test: Inhibitory activity on calcium-sensing receptor (CaSR) using intracellular calcium increase as an indicator (FLIPR, CHO/hCaSR)
study-conditions: CHO/hCaSR cells; intracellular Ca increase induced by CaCl2; test compound 1.05 to 10,000 nM
pIC50: −log10 of the molar value.
result-type: pIC50

input: Print human calcium-sensing receptor (CaSR) (Homo sapiens) pIC50 for `CC[C@@H](OC[C@H](O)CNC(C)(C)CC1Cc2ccccc2C1)c1cccc(F)c1CCC(=O)O` .
output: ≥ 5.63

input: Give pIC50 for `C[C@@H](OC[C@H](O)CNC(C)(C)CC1Cc2ccccc2C1)c1ccc(C#N)cc1CCC(=O)O` tested on human calcium-sensing receptor (CaSR) (Homo sapiens).
output: ≥ 5.63

input: Name the value of pIC50 reported for `COc1ccc([C@@H](C)OC[C@H](O)CNC(C)(C)CC2Cc3ccccc3C2)c(CCC(=O)O)c1` when tested on human calcium-sensing receptor (CaSR) (Homo sapiens).
output: ≥ 5.63

input: Using human calcium-sensing receptor (CaSR) (Homo sapiens) as the test system, report measured pIC50 of `CC[C@@H](OC[C@H](O)CNC(C)(C)CC1Cc2ccccc2C1)c1cccc(Cl)c1CCC(=O)O` .
output: ≥ 5.65

input: Tell me its pIC50 on human calcium-sensing receptor (CaSR) (Homo sapiens): `CC[C@@H](OC[C@H](O)CNC(C)(C)CC1Cc2ccccc2C1)c1cccc(OC)c1CCC(=O)O`
output: ≥ 5.64

input: Param request: pIC50 | system human calcium-sensing receptor (CaSR) (Homo sapiens) | item `Cc1cc(CCCCC(=O)O)c([C@@H](C)OC[C@H](O)CNC(C)(C)CC2Cc3ccccc3C2)cc1F`
output: ≥ 5.66

input: Provide the reported pIC50 (system: human calcium-sensing receptor (CaSR) (Homo sapiens)) for `Cc1ccc(CCCCC(=O)O)c([C@@H](C)OC[C@H](O)CNC(C)(C)CC2Cc3ccccc3C2)c1`
output: ≥ 5.64

input: Give measured pIC50 for `CC[C@@H](OC[C@H](O)CNC(C)(C)CC1Cc2ccccc2C1)c1cc(F)c(C)cc1CCCCC(=O)O` (human calcium-sensing receptor (CaSR) (Homo sapiens)).
output: ≥ 5.67

input: Check human calcium-sensing receptor (CaSR) (Homo sapiens) data and give pIC50 for `C[C@@H](OC[C@H](O)CNC(C)(C)CC1Cc2ccccc2C1)c1ccccc1CCOCC(=O)O` .
output: ≥ 5.63

input: Quote pIC50 with test system human calcium-sensing receptor (CaSR) (Homo sapiens) for `CC[C@@H](OC[C@H](O)CNC(C)(C)CC1Cc2ccccc2C1)c1ccc(C)cc1CCC(=O)O`
output: ≥ 5.63

input: State pIC50 (human calcium-sensing receptor (CaSR) (Homo sapiens)) of `CC[C@@H](OC[C@H](O)CNC(C)(C)CC1Cc2ccccc2C1)c1ccccc1CCC(=O)O` .
output: ≥ 5.62

input: Retrieve pIC50 on human calcium-sensing receptor (CaSR) (Homo sapiens); query `Cc1cccc([C@@H](C)OC[C@H](O)CNC(C)(C)CC2Cc3ccccc3C2)c1CCC(=O)O`
output: ≥ 5.62

input: Write pIC50 of Cc1cccc(CCC(=O)O)c1C(C)OC[C@H](O)CNC(C)(C)CC1Cc2ccccc2C1 (stereo partly drawn) ; system used: human calcium-sensing receptor (CaSR) (Homo sapiens)
output: ≥ 5.62

input: Please look at `CCOc1cccc([C@@H](C)OC[C@H](O)CNC(C)(C)CC2Cc3ccccc3C2)c1CCC(=O)O` and tell me its recorded pIC50 on human calcium-sensing receptor (CaSR) (Homo sapiens).
output: ≥ 5.64

input: Check human calcium-sensing receptor (CaSR) (Homo sapiens) data and give pIC50 for `C[C@@H](OC[C@H](O)CNC(C)(C)CC1Cc2ccccc2C1)c1ccccc1CCCCCC(=O)O` .
output: ≥ 5.64
